TARGET: T1, human EL-411-459 fragment (human)
T1 construct: Used as HEK293 lysate
T1 chain: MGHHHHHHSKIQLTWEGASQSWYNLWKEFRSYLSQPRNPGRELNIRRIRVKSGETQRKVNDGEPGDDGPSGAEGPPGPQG
ASSAY DETAILS: sandwich ELISA with human EL fragment lysate, as Example 10
QUANTITY KIND: binding result

Look over these answered cases.
BINDER	binding result
25E4 antibody (antibody, IgG2b, V domains shown) VH: QVALKESGPGILQPSQTLSLTCSFSGFSLSTSGMGVGWIRQPSGKGLEWLAHIWWHGNKYYSTALKSRLTISKDTSNNQVFLKIASVDTADTATYYCARISDGYPLDYWGQGTSVTVSS VL: DIQMTQSPSSLSASLGGKVTITCKASQDINKYIVWYQQKPGKGPRLLIHYTSTLQPGFPSRFSGSGSGRDYSLSITNLEPEDIATYYCLQYDNLLWTFGGGTKLEIK	no binding
47B2 antibody (antibody, IgG2a, V domains shown) VH: QVALKESGPGILQPSQTLSLTCSFSGFSLSTSGMGVGWIRQPSGKGLEWLAHIWWHGNKYYSTGLKSRLTISKDTSNNQVFLKIASVDTADTATYYCARISAGYPLDYWGQGTSVTVSS VL: DIQMTQSPSSLSASLGGKVTITCKASQDINKYIVWYQHKPGKGPRLLIHYTSTLQPGFPSRFSGSGSGRDYSLSITNLEPEDIATYYCLQYDNLLWTFGGGTKLEIK	binds
3B1 antibody (antibody, IgG1, V domains shown) VH: QVTLKESGPGILQPSQTLSLTCSFSGFSLSTSGVGVGWIRQPSGKGLEWLAHIWWNDNKYYNTALKSRLTISKDTSNNQVFLKIASVDTADTATYFCARSYDGYPFDYWGQGTLVTVSA VL: DIQMTQSPSSLSASLGGKVTITCKASQDINKYIVWYQHKPGKGPRLLIHHTSTLQPGIPSRFSESGSGRDYSFSISNLEPEDIASYYCLQYDTLLWTFGGGTKLEIR	binds
41H8 antibody (antibody, IgG1, V domains shown) VH: QVTLKESGPGILQPSQTLSLTCSFSGFSLSTYGMGVGWIRQPSGKGLEWLAHIWWNENKYYNTDLKSRLTISKDTSNNQVFLKIASVDTADTATYYCARIGPGVPFDYWGQGTTITVSS VL: DIQMTQSPSSLSASLGGKVTITCKASQDINKFIAWYQHKPGKGPRLLIHYTSTLQPGIPSRFNGSGSGRDYSFTISNLEPEDIATYYCLQYDILTWTFGGGTKLEIK	no binding

Which value of binding result has been reported for 16A11 antibody (antibody, IgG1, V domains shown) VH: QVTLKESGPGILQPSQTLSLTCSFSGFSLSTSGMGVGWVRQPSGKGLEWLAHIWWNDYYYYKTALKSRLTISKDTSNNQVFLKIASVDTVDTATYYCARMAPGTPFPSWGQGTLVTVSA VL: DIQMTQSPSSLSASLGGKVTITCKASQDINRYIAWYQHKPGKGPRLLIHYTSTLQPGIPSRFSGSGSGRDYSFSISNLEPEDIATYYCLQYDILLWTFGGGTKLEIK in the records?
binds
